Source listed as the supplement of paper PMC9170038.

Test system: K4 kissing-loop RNA reporter
Test: apparent KD of K4 kissing-loop reporter; higher = weaker reporter binding
Details: Eterna round: R107; input ligand: theophylline 20 uM

{"Macromolecule sequence": "AUUUUGGUUUAGAGUGAUGUUCCUUGUAUUCGAGGACCGGUACGGCCGCCACUCGAAUAGAAAAGAAAAGAAAUGUUUGAUGUUU [BDazzled - #6 SS Tryptophan A]", "apparent KD of K4 kissing-loop reporter [nM]": 274}
{"Macromolecule sequence": "AGUCCACUCUAAAGAGUGGACCUAAGGGAUACCAGUGAUGUUGGUCACCCUUGGCAGCCCGCUGUCAUCGAUAAAGAUGGCAGAA", "apparent KD of K4 kissing-loop reporter [nM]": 147}
{"Macromolecule sequence": "UAGGGCAUCGCAGGAUAUCCUGCUUAACGUUGGAUUCCAGUGAUGUUGGAAAGUCGGCCUAGGGUAGGAGAAGGGCGAACUUGAA [Maxean]", "apparent KD of K4 kissing-loop reporter [nM]": 195}

###

System: K4 kissing-loop RNA reporter;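 note: bound reporter read as fluorescence of individual clusters on recovered sequencing chips by microscopy, with normalized cluster intensities fitted with a binding model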
Assay: apparent KD of K4 kissing-loop reporter; higher = weaker reporter binding
Conditions: Eterna round: R107; input ligand: tryptophan 2.4 mM
Quantity kind: apparent KD of K4 kissing-loop reporter (µM)

{"Macromolecule sequence": "AGGAUGUAGUGAUGUUAUAUAAGAAGUAAACGAGGACCGGUACGGCCGCCACUCGAAACGGCUACUAGCGCGUUGCGAGGUGUGC [ExTryptoA.Cf]", "Quantity kind": "apparent KD of K4 kissing-loop reporter", "Quantitative readout": 0.402}
{"Macromolecule sequence": "GCCGUAGAUUGAAGGAGCGGUUCAUCAAUUCAAGUCGAGUGAUGUUCGACGAUUCUCAGUAACCAGGUAGGUCGCAAUCUACGGC", "Quantity kind": "apparent KD of K4 kissing-loop reporter", "Quantitative readout": 0.143}
{"Macromolecule sequence": "ACGUAGUUCUAGGAUACCAGCCAAGGUGCCAGGACAAAAGUCCUGGCAGCCAGUGAUGUUGGCCCUUGGCAGCCUAGAACUACGA [Omei KL Theo B Exc B v7]", "Quantity kind": "apparent KD of K4 kissing-loop reporter", "Quantitative readout": 0.137}
{"Macromolecule sequence": "AAUUAAUACAGAAGGAGCGUGAAAUUAUCUACUUUUAACUUAGCGAGUGAUGUUCGUUUUUCACAGGUAGGUCGCUGUAUAUUUA [JR_ExcArginiB_Sub009]", "Quantity kind": "apparent KD of K4 kissing-loop reporter", "Quantitative readout": 0.152}
{"Macromolecule sequence": "GGAGGUUGGUGCGAUACCAGACCAGCAGUGAUGUUGCGCCAAAGUGAGUGAUGUUCACCGGUCCCUUGGCAGCGCAUUCCUUUAG [Same State Theophylline B GF 14]", "Quantity kind": "apparent KD of K4 kissing-loop reporter", "Quantitative readout": 1.11}
{"Macromolecule sequence": "AAGUGAUGUUGUAGUGAUGUUGUGAUGUUGCAGGAUAUAUAGUGAUGUAGAAGGGUAUGUGCAGUGUUCUUAUUUGAGUGUUGAU [zffdmullin]", "Quantity kind": "apparent KD of K4 kissing-loop reporter", "Quantitative readout": 0.064}

###

Test system: MS2 coat protein
Experiment: apparent KD of MS2 coat protein; designed switch direction (-1 OFF switch, 1 ON switch): -1; higher = weaker reporter binding
Details: input ligand: FMN 200 uM
Quantity kind: apparent KD of MS2 coat protein (nM)

{"Macromolecule sequence": "AAGGGUGCUUUCAGAACGACAUGAGGAUCACCCAUGUAGACUGAGGAUAUCUACUUCUAAGGACGGGAGAAGGCAGUGUAAUGC [Ex NG3 #68] (Eterna round: R96, puzzle: Exclusion NG 3)", "System": "MS2 coat protein", "Quantitative readout": 23.1}
{"Macromolecule sequence": "GCGGACUAGAACGUGAGUUCUGAGACAUGAGGAUCACCCAUGUAGGAUAUCGAUUCGUUUCGAAUCGAGAAGGGCAUAGUCCGC [JL denovo 12] (Eterna round: R96, puzzle: Exclusion NG 3)", "System": "MS2 coat protein", "Quantitative readout": 21.3}
{"Macromolecule sequence": "AACAGUCUAGAGGAUAUGCUGGAUGAAUAUCUGGCAGAAGGCUGGACAUGAGGAUCACCCAUGUAAAUACUACC [Omei Ex6 A1c] (Eterna round: R97, puzzle: Exclusion 6)", "System": "MS2 coat protein", "Quantitative readout": 96.9}
{"Macromolecule sequence": "ACAUGAGGAUCACCCAUGUCUGGCUGGUCUGUUCCGGCUGUCGAGGAUAUAGUCCGGUGUUCGCGCUAGAAGGUGAGGGCUGGA [Aenatbe mod 44] (Eterna round: R96, puzzle: Exclusion NG 3)", "System": "MS2 coat protein", "Quantitative readout": 153}
{"Macromolecule sequence": "AAAUCGGUAGAGGAUAUUGUACAGGAAACGGUGCGAGAAGGUUACACAUGAGGAUCACCCAUGUUAAAUAGCGA [EX6 #54] (Eterna round: R97, puzzle: Exclusion 6)", "System": "MS2 coat protein", "Quantitative readout": 17.9}
{"Macromolecule sequence": "ACGAGGAUUACAGGAUAUGAAGCUAAAACGGCGUUAGAAGGGUAUACAGAGUUACAUGAGGAUCACCCAUGUUGUGAUUUCGAA [AK ExNG1-V2-4.1] (Eterna round: R96, puzzle: Exclusion NG 1)", "System": "MS2 coat protein", "Quantitative readout": 158}
{"Macromolecule sequence": "UUCUUUAUACGAGGAUAUCAUACAUGAGGAUCACCCAUGUGGCUGGGUCUGUUUUUAUAUAAUAUUGAGAAGGCGUUUUUCUAU [JR_ExcNG2_Sub073] (Eterna round: R96, puzzle: Exclusion NG 2)", "System": "MS2 coat protein", "Quantitative readout": 291}
{"Macromolecule sequence": "GCCGGAGCAGGAUAUCUAAUAUAUCACAUGAGGAUCACCCAUGUCCAGCGAAAGCUGGAGGGAGAAGGGCUCUGGC [Fiskers Ex 5 - 22] (Eterna round: R96, puzzle: Exclusion 5)", "System": "MS2 coat protein", "Quantitative readout": 47}
{"Macromolecule sequence": "AGAUCUAGGACAGGAUAUACAGAUGGCUUCAUCGAAGAUGAAGCCAUCACAUGAGGAUCACCCAUGUAGAAGGGUCCUAGAUCA [Omei Exc(NG) 2Av4] (Eterna round: R96, puzzle: Exclusion NG 2)", "System": "MS2 coat protein", "Quantitative readout": 19.2}
{"Macromolecule sequence": "GCCGGUCAUGUAGGAUAUGGCCGGCGGUGCCGGCCAGAAGGACAUGAGGAUCACCCAUGUGCCGGCCUUUGGCCGGCACCCGGC (Eterna round: R96, puzzle: Exclusion NG 1)", "System": "MS2 coat protein", "Quantitative readout": 10.3}
